TARGET: human FPR1 (Homo sapiens (Human))
PROCEDURE_SUMMARY: FPR1 cyclic adenosine monophosphate (cAMP) assay
MEASUREMENT_PARAMETERS: CHO cells overexpressing human FPR1; forskolin 10 µM; inhibition of cAMP production; read-out: hFPR1 cAMP EC50
Method: N-formyl peptide receptors (FPRs) are a family of chemo attractant receptors that facilitate leukocyte response during inflammation. FPRs belong to the seven-transmembrane G protein-coupled receptor superfamily and are linked to inhibitory G-proteins (Gi). […] FPR2 and FPR1 Cyclic Adenosine Monophosphate (cAMP) Assays. […] The level of intracellular cAMP was determined using the HTRF HiRange cAMP assay reagent kit (Cisbio) according to manufacturer’s instruction. […]
PROPERTY_NAME: EC50 (nM)

Below, 3 compounds whose answers are already recorded.
[[record]]
compound = "COc1cc(F)c([C@@H]2CN(c3c(C)ccn(CC4CCOCC4)c3=O)C(=O)[C@H]2NC(=O)c2ccc(OC(F)(F)F)cc2)c(F)c1 [Example 456]"
readout_unit = "nM"
endpoint_result = 1

[[record]]
compound = "COc1cc(F)c([C@@H]2CN(c3cccnc3C#N)C(=O)[C@H]2NC(=O)c2ccc(OC(F)(F)F)cc2)c(F)c1 [Example 21]"
readout_unit = "nM"
endpoint_result = 2300

[[record]]
compound = "COc1cc(F)c([C@@H]2CN(c3cccn(C(F)F)c3=O)C(=O)[C@H]2NC(=O)c2ccc(Cl)cc2)c(F)c1 [Example 94]"
readout_unit = "nM"
endpoint_result = 95


P. COc1cc(F)c([C@@H]2CN(c3c(C)ccn(CCC(F)(F)F)c3=O)C(=O)[C@H]2NC(=O)c2ccc(Cl)cc2)c(F)c1 [Example 430]
Q. COCC(CO)n1cccc(N2C[C@@H](c3ccc(Cl)cc3)[C@H](NC(=O)c3ccc(OC(F)F)cc3)C2=O)c1=O (stereo partly drawn) [Example 307]
Sort P and Q by EC50 descending and give the first. Mark your answer with the label of the selected entry. P
(P: 5 nM, Q: 1.8 nM)

====

TARGET: UniProtKB P25090
Sequence (P25090 whole entry): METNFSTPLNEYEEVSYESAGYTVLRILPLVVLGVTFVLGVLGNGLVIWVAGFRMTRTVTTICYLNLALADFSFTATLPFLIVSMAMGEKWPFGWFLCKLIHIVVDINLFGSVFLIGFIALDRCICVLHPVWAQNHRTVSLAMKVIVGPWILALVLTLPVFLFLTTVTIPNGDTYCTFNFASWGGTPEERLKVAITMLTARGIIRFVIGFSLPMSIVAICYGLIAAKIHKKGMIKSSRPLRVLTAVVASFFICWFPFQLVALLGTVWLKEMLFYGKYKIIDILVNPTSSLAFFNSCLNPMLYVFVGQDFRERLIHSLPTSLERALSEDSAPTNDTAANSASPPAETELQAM
PROCEDURE_SUMMARY: FPR2 cyclic adenosine monophosphate (cAMP) assay
MEASUREMENT_PARAMETERS: CHO cells overexpressing human FPR2; forskolin 5 µM; inhibition of cAMP production; read-out: hFPR2 cAMP2 EC50
pEC50: −log10 of the molar value.
PROPERTY_NAME: pEC50

Below, 2 compounds whose answers are already recorded.
[[record]]
compound = "COc1cc(F)c([C@@H]2CN(c3nccc(N4CCN(C)CC4)c3C(F)(F)F)C(=O)[C@H]2NC(=O)c2ccc(OC(F)F)cc2)c(F)c1"
target = "UniProtKB P25090"
endpoint_result = 8.09

[[record]]
compound = "COc1cc(F)c([C@@H]2CN(c3nc(NC4CCOC4)ccc3F)C(=O)[C@H]2NC(=O)c2ccc(OC(F)(F)F)cc2)c(F)c1 (stereo partly drawn) [Example 84]"
target = "UniProtKB P25090"
endpoint_result = 8.64


1. COc1cc(F)c([C@@H]2CN(c3cccn(CC(C)(CO)CO)c3=O)C(=O)[C@H]2NC(=O)c2ccc(OC(F)(F)F)cc2)c(F)c1 [Example 187]
2. COCC(CO)n1cccc(N2C[C@@H](c3ccc(OC)cc3F)[C@H](NC(=O)c3ccc(OC(F)(F)F)cc3)C2=O)c1=O (stereo partly drawn) [Example 705]
Given 1 and given 2 , which shows the smaller recorded pEC50? Mark your answer with the label of the selected entry. 1

A. COc1cc(C2CCN(CCO)CC2)nc(N2C(=O)[C@@H](NC(=O)c3ccc(OC(F)F)cc3)[C@H](c3c(F)cc(OC)cc3F)[C@@H]2C)c1
B. COc1cc(F)c([C@@H]2CN(c3c(C)ccn(CC(O)C(F)(F)F)c3=O)C(=O)[C@H]2NC(=O)c2ccc(OC(F)F)cc2)c(F)c1 (stereo partly drawn) [Example 489]
C. COc1cc(F)c([C@H]2[C@H](NC(=O)c3ccc(OC(F)F)cc3)C(=O)N(c3cccc(C4CCNCC4)n3)[C@H]2C)c(F)c1
Could you please order the items by pEC50, going from the lowest number to the highest? Return value: ordered labels per request. A, B, C
(A: 8.66, B: 9.15, C: 9.70)

P. CCn1nccc(N2C[C@@H](c3c(F)cc(OC)cc3F)[C@H](NC(=O)c3ccc(OC(F)(F)F)cc3)C2=O)c1=O
Q. COc1cc(F)c([C@@H]2CN(c3nc(N4C(=O)C5CCCC54)ccc3F)C(=O)[C@H]2NC(=O)c2ccc(OC(F)F)cc2)c(F)c1 (stereo partly drawn) [Example 66]
Given P and given Q , which shows the smaller recorded pEC50? Mark your answer with the label of the selected entry. P

====

TARGET: UniProt P21462
PROCEDURE_SUMMARY: FPR1 cyclic adenosine monophosphate (cAMP) assay
MEASUREMENT_PARAMETERS: CHO cells overexpressing human FPR1; forskolin 10 µM; inhibition of cAMP production; read-out: hFPR1 cAMP EC50
pEC50: −log10 of the molar value.
PROPERTY_NAME: pEC50

Below, 2 molecules whose answers are already recorded.
[[record]]
molecule = "COc1cc(F)c([C@@H]2CN(c3cccn(CC(C)OC)c3=O)C(=O)[C@H]2NC(=O)c2ccc(OC(F)(F)F)cc2)c(F)c1 (stereo partly drawn) [Example 138]"
endpoint_result = 8.77

[[record]]
molecule = "COCC(CO)n1cccc(N2C[C@@H](c3c(F)cc(OC)cc3F)[C@H](NC(=O)c3ccc(OC(F)F)cc3)C2=O)c1=O (stereo partly drawn) [Example 133]"
endpoint_result = 7.92


a. COCCn1cccc(N2C[C@@H](c3ccc(Cl)cc3)[C@H](NC(=O)c3ccc(OC(F)F)cc3)C2=O)c1=O
b. CCn1cc(C)c(C)c(N2C[C@@H](c3c(F)cc(OC)cc3F)C(NC(=O)c3ccc(OC(F)(F)F)cc3)C2=O)c1=O (stereo partly drawn) [Example 638]
c. COCC(CO)n1cccc(N2C(=O)[C@@H](NC(=O)c3ccc(OC(F)F)cc3)[C@H](c3c(F)cc(OC)cc3F)[C@@H]2C)c1=O (stereo partly drawn)
Could you please order the items by pEC50, going from the lowest number to the highest? Return value: ordered labels per request. b, c, a
(b: 6.54, c: 7.38, a: 8.03)

====

TARGET: human FPR1 (Homo sapiens (Human), UniProt P21462)
Sequence (P21462 whole entry): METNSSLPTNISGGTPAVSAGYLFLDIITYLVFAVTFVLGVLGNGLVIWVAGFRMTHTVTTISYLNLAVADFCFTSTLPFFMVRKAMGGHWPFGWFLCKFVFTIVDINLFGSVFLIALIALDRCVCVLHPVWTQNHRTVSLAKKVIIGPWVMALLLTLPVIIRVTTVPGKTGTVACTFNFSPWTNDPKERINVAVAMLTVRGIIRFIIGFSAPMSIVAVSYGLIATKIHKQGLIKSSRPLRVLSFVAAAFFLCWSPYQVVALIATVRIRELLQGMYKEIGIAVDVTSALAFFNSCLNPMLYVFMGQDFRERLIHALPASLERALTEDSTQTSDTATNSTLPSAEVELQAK
PROCEDURE_SUMMARY: FPR1 cyclic adenosine monophosphate (cAMP) assay
MEASUREMENT_PARAMETERS: CHO cells overexpressing human FPR1; forskolin 10 µM; inhibition of cAMP production; read-out: hFPR1 cAMP EC50
PROPERTY_NAME: EC50 (nM)

Below, 7 compounds whose answers are already recorded.
[[record]]
compound = "COc1cc(F)c([C@H]2[C@H](NC(=O)c3ccc(OC(F)(F)F)cc3)C(=O)N(c3cccn(CCO)c3=O)[C@H]2C)c(F)c1"
readout_unit = "nM"
endpoint_result = 150

[[record]]
compound = "COc1cc(C2CC2)nc(N2C[C@@H](c3c(F)cc(OC)cc3F)[C@H](NC(=O)c3ccc(OC(F)F)cc3)C2=O)c1"
readout_unit = "nM"
endpoint_result = 2600

[[record]]
compound = "COc1cc(F)c([C@@H]2CN(c3c4c(cn(CCO)c3=O)CCCC4)C(=O)[C@H]2NC(=O)c2ccc(OC(F)F)cc2)c(F)c1"
readout_unit = "nM"
endpoint_result = 670

[[record]]
compound = "COc1cc(F)c([C@@H]2CN(c3cccn(CC(O)C(F)(F)F)c3=O)C(=O)[C@H]2NC(=O)c2ccc(OC(F)(F)F)cc2)c(F)c1 (stereo partly shown) [Example 155]"
readout_unit = "nM"
endpoint_result = 9.3

[[record]]
compound = "COc1cc(F)c([C@@H]2CN(c3c(C)ccn(C4CCNC4)c3=O)C(=O)[C@H]2NC(=O)c2ccc(Cl)cc2)c(F)c1 (stereo partly shown)"
readout_unit = "nM"
endpoint_result = 680

[[record]]
compound = "COc1cc(F)c([C@@H]2CN(c3cccc(N4C[C@@H](C)N(C)[C@@H](C)C4)n3)C(=O)[C@@H]2NC(=O)c2ccc(OC(F)F)cc2)c(F)c1"
readout_unit = "nM"
endpoint_result = 1800

[[record]]
compound = "COc1cc(C2CCN(C)CC2)nc(N2C(=O)[C@@H](NC(=O)c3ccc(OC(F)(F)F)cc3)[C@H](c3c(F)cc(OC)cc3F)[C@@H]2C)c1"
readout_unit = "nM"
endpoint_result = 720


1. COc1ccc([C@@H]2CN(c3c(C)ccn(C4CCC4)c3=O)C(=O)[C@H]2NC(=O)c2ccc(OC(F)(F)F)cc2)c(F)c1
2. COc1cc(F)c([C@@H]2CN(c3cncn(CC(O)C(F)(F)F)c3=O)C(=O)[C@H]2NC(=O)c2ccc(Cl)cc2)c(F)c1 (stereo partly shown)
3. COc1cc(F)c([C@@H]2CN(c3cccn4cc(CO)nc34)C(=O)[C@H]2NC(=O)c2ccc(Cl)cc2)c(F)c1
4. COc1ccc([C@@H]2CN(c3c(C)ccn(CC4CCOCC4)c3=O)C(=O)[C@H]2NC(=O)c2ccc(OC(F)(F)F)cc2)cc1
5. COc1cc(F)c([C@@H]2CN(c3c(C)ccn(C4CCOC4)c3=O)C(=O)[C@H]2NC(=O)c2ccc(Cl)cc2)c(F)c1 (stereo partly shown)
Could you please order the items by EC50, going from the lowest number to the highest? Return value: ordered labels per request. 4, 1, 5, 2, 3
